molecular target: Delta-type opioid receptor (Homo sapiens); test: biochemical
Sequence (P41143 whole entry): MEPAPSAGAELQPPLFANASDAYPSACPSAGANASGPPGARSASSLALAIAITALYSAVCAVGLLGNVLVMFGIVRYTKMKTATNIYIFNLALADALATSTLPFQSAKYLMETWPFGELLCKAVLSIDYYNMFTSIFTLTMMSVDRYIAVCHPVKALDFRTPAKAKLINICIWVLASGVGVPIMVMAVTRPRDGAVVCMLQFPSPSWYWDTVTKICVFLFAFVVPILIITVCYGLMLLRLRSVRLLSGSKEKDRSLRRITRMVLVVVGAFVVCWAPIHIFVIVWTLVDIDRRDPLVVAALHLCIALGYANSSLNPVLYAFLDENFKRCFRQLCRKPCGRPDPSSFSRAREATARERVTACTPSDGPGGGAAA
Description: Displacement of [3H]diprenorphine from human delta opioid receptor in CHO cells
Under this convention, t denotes Ki strictly below 0.02 µM and f denotes Ki at or above 0.02 µM.

Ask: # TODO verify Ki < 0.02 µM strictly for this compound: CCN(CC)C(=O)c1ccc(C2=CC3(CCNCC3)Oc3cccc(O)c32)cc1
Reply: t

Ask: Given the entry CCN(CC)C(=O)c1ccc(C2=CC3(CCNCC3)Oc3ccc(O)cc32)cc1 , would its reported Ki be below 0.02 µM?
Reply: t

Ask: Ki under 0.02 µM? Item: N#Cc1ccc(C2=CC3(CCNCC3)Oc3ccccc32)cc1
Reply: t

Ask: Does CCN(CC)C(=O)c1ccc(C2=CC3(CCN(C(C)=O)CC3)Oc3ccccc32)cc1 have Ki strictly under 0.02 µM?
Reply: f

Ask: Could you please tell me whether Ki recorded for O=S(=O)(Cc1ccc(Cl)cc1)N1CCC2(CC1)CC(c1ccccc1)c1ccccc1O2 (stereo not given) is less than 0.02 µM?
Reply: f

Ask: Please determine if O=C(O)c1ccc(C2=CC3(CCNCC3)Oc3ccccc32)cc1 is below 0.02 µM in terms of Ki.
Reply: t

Ask: API: query returns whether the compound falls strictly under 0.02 µM in Ki. Query: CCN(CC)C(=O)c1ccc(C2=CC3(CCN(C)CC3)Oc3ccccc32)cc1
Reply: t

Ask: State whether 0.02 µM exceeds Ki recorded for FC(F)(F)c1ccc(C2=CC3(CCNCC3)Oc3ccccc32)cc1 .
Reply: f

Ask: Regarding Oc1ccc(C2=CC3(CCNCC3)Oc3ccccc32)cc1 , kindly confirm whether its Ki is beneath 0.02 µM.
Reply: f

Ask: Hello, is Ki of the following compound strictly smaller than 0.02 µM? c1ccc(C2CC3(CCNCC3)Oc3ccccc32)cc1 (stereo not given)
Reply: f

* * *

target: Kappa-type opioid receptor (Homo sapiens); test: Displacement of [3H]diprenorphine from human kappa opioid receptor in CHO cells at 10 uM; assay type: cell-based
Sequence (P41145 whole entry): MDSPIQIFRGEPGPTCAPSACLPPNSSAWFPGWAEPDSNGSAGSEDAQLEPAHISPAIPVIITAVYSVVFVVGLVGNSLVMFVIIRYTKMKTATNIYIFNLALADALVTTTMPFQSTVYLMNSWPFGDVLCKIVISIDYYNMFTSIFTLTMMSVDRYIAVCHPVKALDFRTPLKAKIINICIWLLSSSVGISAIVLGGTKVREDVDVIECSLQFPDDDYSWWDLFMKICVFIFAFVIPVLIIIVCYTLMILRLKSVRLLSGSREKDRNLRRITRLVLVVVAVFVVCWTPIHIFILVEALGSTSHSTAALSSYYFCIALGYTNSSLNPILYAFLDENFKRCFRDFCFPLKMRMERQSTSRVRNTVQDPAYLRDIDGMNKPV
PROPERTY_MEASURED: pKi
Hey, just a heads up that pKi is the negative log base 10 of the concentration in molar.

Ask: // map C=CCN1C[C@H](C)N([C@H](c2ccc(C(=O)N(CC)CC)cc2)c2cccc(O)c2)C[C@H]1C to recorded pKi (system: Kappa-type opioid receptor (Homo sapiens))
Reply: 6.89

* * *

assay: Half life in rat at 3.0 mg/kg, po; format: ADME, organism-based; set-up: dose 3 mg/kg, route oral; conditions: in vivo
PROPERTY_MEASURED: half-life (h)
Answer format: numeric, h implied, no suffix.

Ask: Query: half-life; subject: CCN(CC)C(=O)c1ccc(C2=CC3(CCNCC3)Oc3cccc(O)c32)cc1 [ADL-5859]
Reply: 5.3

* * *

test: Volume of distribution at steady state in rat at 0.25 mg/kg, iv and 3.0 mg/kg, po; assay type: ADME, organism-based; details: in vivo, read-out: Vdss
PROPERTY_MEASURED: Vd
Please answer using a numeric value trailed by its unit.

Ask: Fill in the blank: the reported Vd of CCN(CC)C(=O)c1ccc(C2=CC3(CCNCC3)Oc3cccc(O)c32)cc1 is ____.
Reply: 10.7 L/kg

* * *

assay: Clearance in rat at 0.25 mg/kg, iv and 3.0 mg/kg, po; format: ADME, organism-based; conditions: in vivo
PROPERTY_MEASURED: clearance

Ask: Which clearance value belongs to CCN(CC)C(=O)c1ccc(C2=CC3(CCNCC3)Oc3cccc(O)c32)cc1 ?
Reply: 30 mL/min/kg
